tested on: MM.1S; experiment: Tumor cell proliferation inhibition (CellTiter-Meiluncell Luminescent Cell Viability Assay); format: cell-based; details: Homo sapiens, MM1.S; MM.1S; 10 nM; 96 hours; Table I-2, ALK inhibitors; read-out: Inhibition Rate at 10 nM (%)
# Lookup of reported inhibition at 0.01 µM keyed by entry

COMPOUND	ASSAY_ENDPOINT	RESULT
COc1cc(N2CCN(Cc3cccc4c3CN(C3CCC(=O)NC3=O)C4=S)CC2)ccc1Nc1ncc(Cl)c(Nc2ccccc2P(C)(C)=O)n1 (centres unmarked)	inhibition at 0.01 µM	10 to 20%

Q: Consider the compound shown here: COc1cc(N2CCN(Cc3ccc4c(c3)C(=S)N(C3CCC(=O)NC3=O)C4)CC2)ccc1Nc1ncc(Cl)c(Nc2ccccc2P(C)(C)=O)n1 (centres unmarked) What is its recorded inhibition at 0.01 µM?
A: 10 to 20%

Q: Same for COc1cc(N2CCN(Cc3ccc4c(c3)CN(C3CCC(=O)NC3=O)C4=S)CC2)ccc1Nc1ncc(Cl)c(Nc2ccccc2P(C)(C)=O)n1 (centres unmarked)
A: 10 to 20%

Q: Same for C[C@H]1Oc2cc(cnc2N)-c2c(nn(C)c2C#N)CN(C)C(=O)c2ccc(F)cc21 [lorlatinib, reference compound]
A: -5 to 0%

Q: Same for COc1cc(N2CCC(N(C)Cc3ccc4c(c3)C(=S)N(C3CCC(=O)NC3=O)C4)CC2)ccc1Nc1ncc(Cl)c(Nc2ccccc2P(C)(C)=O)n1 (centres unmarked)
A: 0 to 10%

Q: Same for Cc1cc(Nc2ncc(Cl)c(Nc3ccccc3S(=O)(=O)C(C)C)n2)c(OC(C)C)cc1C1CCN(Cc2ccc3c(c2)CN(C2CCC(=O)NC2=O)C3=S)CC1 (centres unmarked)
A: 30 to 40%

Q: Same for Cc1cc(Nc2ncc(Cl)c(Nc3ccccc3S(=O)(=O)C(C)C)n2)c(OC(C)C)cc1C1CCN(Cc2ccc3c(c2)C(=S)N(C2CCC(=O)NC2=O)C3)CC1 (centres unmarked)
A: 0 to 10%

Q: Same for Cc1cc(Nc2ncc(Cl)c(Nc3ccccc3S(=O)(=O)C(C)C)n2)c(OC(C)C)cc1C1CCN(Cc2cccc3c2CN(C2CCC(=O)NC2=O)C3=S)CC1 (centres unmarked)
A: 10 to 20%

---

# Lookup of reported inhibition at 0.01 µM keyed by entry
system: MCF-7; assay: Tumor cell proliferation inhibition (CellTiter-Meiluncell Luminescent Cell Viability Assay); type: cell-based; conditions: Homo sapiens, MCF7, 10 nM, 96 hours, Table I-2, ALK inhibitors, read-out: Inhibition Rate at 10 nM (%)

Answered examples (5):
MOLECULE	MEASURED_TARGET	inhibition at 0.01 µM
COc1cc(N2CCN(Cc3cccc4c3CN(C3CCC(=O)NC3=O)C4=S)CC2)ccc1Nc1ncc(Cl)c(Nc2ccccc2P(C)(C)=O)n1 (stereo not shown)	MCF-7	-5 to 0%
COc1cc(N2CCN(Cc3ccc4c(c3)C(=S)N(C3CCC(=O)NC3=O)C4)CC2)ccc1Nc1ncc(Cl)c(Nc2ccccc2P(C)(C)=O)n1 (stereo not shown)	MCF-7	20 to 30%
C[C@H]1Oc2cc(cnc2N)-c2c(nn(C)c2C#N)CN(C)C(=O)c2ccc(F)cc21 [lorlatinib, reference compound]	MCF-7	10 to 20%
Cc1cc(Nc2ncc(Cl)c(Nc3ccccc3S(=O)(=O)C(C)C)n2)c(OC(C)C)cc1C1CCN(Cc2ccc3c(c2)C(=S)N(C2CCC(=O)NC2=O)C3)CC1 (stereo not shown)	MCF-7	-20 to -10%
Cc1cc(Nc2ncc(Cl)c(Nc3ccccc3S(=O)(=O)C(C)C)n2)c(OC(C)C)cc1C1CCN(Cc2cccc3c2CN(C2CCC(=O)NC2=O)C3=S)CC1 (stereo not shown)	MCF-7	40 to 50%

Q: Consider the molecule shown here: COc1cc(N2CCN(Cc3ccc4c(c3)CN(C3CCC(=O)NC3=O)C4=S)CC2)ccc1Nc1ncc(Cl)c(Nc2ccccc2P(C)(C)=O)n1 (stereo not shown) What is its recorded inhibition at 0.01 µM?
A: 20 to 30%

Q: Same for Cc1cc(Nc2ncc(Cl)c(Nc3ccccc3S(=O)(=O)C(C)C)n2)c(OC(C)C)cc1C1CCN(Cc2ccc3c(c2)CN(C2CCC(=O)NC2=O)C3=S)CC1 (stereo not shown)
A: 30 to 40%

---

tested on: JEKO-1; experiment: Tumor cell proliferation inhibition (CellTiter-Meiluncell Luminescent Cell Viability Assay); format: cell-based; conditions: Homo sapiens, 500 nM, 96 hours, Table I-6, IRAK4 inhibitors, read-out: Inhibition Rate at 500 nM (%)
ASSAY_ENDPOINT: inhibition at 0.5 µM

Answered examples (4):
COMPOUND	inhibition at 0.5 µM
O=C1CCC(N2Cc3cc(CN4CCC(n5cc(NC(=O)c6cnn7ccc(N8C[C@H]9C[C@@H]8CO9)nc67)c(C(F)F)n5)CC4)ccc3C2=S)C(=O)N1 (some centres unmarked)	40 to 50%
O=C1CCC(N2Cc3cc(CN4CCC(n5cc(NC(=O)c6cnn7ccc(N8CCOCC8)nc67)c(C(F)F)n5)CC4)ccc3C2=S)C(=O)N1 (centres unmarked)	20 to 30%
O=C1CCC(N2Cc3cc(CN4CCC(n5cc(NC(=O)c6coc(-c7ccnc(NCC(F)(F)F)c7)n6)c(C(F)F)n5)CC4)ccc3C2=S)C(=O)N1 (centres unmarked)	80 to 100%
CC[C@@H]1[C@H](F)C(=O)N[C@@H]1COc1nccc2cc(C(N)=O)c(OC)cc12 [PF06650833, PF-06650833, reference compound]	20 to 30%

Q: Record O=C1CCC(N2Cc3cc(CN4CCC(n5cc(NC(=O)c6coc(-c7ccnc(NCC8CC8)c7)n6)c(C(F)F)n5)CC4)ccc3C2=S)C(=O)N1 (centres unmarked) : what is its inhibition at 0.5 µM with JEKO-1?
A: 80 to 100%

---

Test system: MV-4-11
Test: Tumor cell proliferation inhibition (CellTiter-Meiluncell Luminescent Cell Viability Assay)
Format: cell-based
Conditions: Homo sapiens, MV4-11, 10 nM, 96 hours, Table I-10, BCR-ABL inhibitors, read-out: Inhibition Rate at 10 nM (%)
Method: The tumor cells used herein were cultured in a cell culture medium listed in table 3 at 37°C in an incubator with 5% CO2. […] The IC50 values of the compounds of the present disclosure (including the compounds in Table 1, Table 2, and Examples) were determined using the CellTiter-Meiluncell Luminescent Cell Viability Assay Kit from Dalian Meilun Biotech Co., Ltd. The detailed procedure is as follows: Tumor cells were seeded in 96-well cell culture plates at the densities specified in Table 4. […]
ASSAY_ENDPOINT: inhibition at 0.01 µM

Answered examples (3):
MOLECULE	RESULT
Cc1ccc(C(=O)Nc2ccc(N3CCN(Cc4cccc5c4CN(C4CCC(=O)NC4=O)C5=S)CC3)c(C(F)(F)F)c2)cc1C#Cc1cnc2cccnn12 (stereo not shown) [GT-08774]	20 to 30%
Cc1ccc(NC(=O)c2ccc(CN3CCN(C)CC3)cc2)cc1Nc1nccc(-c2cccnc2)n1 [imatinib]	0 to 5%
Cc1ccc(C(=O)Nc2ccc(CN3CCN(Cc4ccc5c(c4)CN(C4CCC(=O)NC4=O)C5=S)CC3)c(C(F)(F)F)c2)cc1C#Cc1cnc2cccnn12 (stereo not shown) [GT-08767]	80 to 100%

// next entry
Q: Consider the molecule shown here: Cc1ccc(C(=O)Nc2ccc(CN3CCN(Cc4cccc5c4CN(C4CCC(=O)NC4=O)C5=S)CC3)c(C(F)(F)F)c2)cc1C#Cc1cnc2cccnn12 (stereo not shown) [GT-08773] What is its recorded inhibition at 0.01 µM?
A: 30 to 40%

---

target: human Cereblon WT GST-tagged protein (Homo sapiens, UniProt Q96SW2); construct: purchased CISBIO 64BDCRBNPEH; experiment: CRBN-binding affinity, HTRF (CEREBLON BINDING kit); settings: read-out: Inhibition Rate at 0.5 µM (%)
Sequence (Q96SW2 whole entry): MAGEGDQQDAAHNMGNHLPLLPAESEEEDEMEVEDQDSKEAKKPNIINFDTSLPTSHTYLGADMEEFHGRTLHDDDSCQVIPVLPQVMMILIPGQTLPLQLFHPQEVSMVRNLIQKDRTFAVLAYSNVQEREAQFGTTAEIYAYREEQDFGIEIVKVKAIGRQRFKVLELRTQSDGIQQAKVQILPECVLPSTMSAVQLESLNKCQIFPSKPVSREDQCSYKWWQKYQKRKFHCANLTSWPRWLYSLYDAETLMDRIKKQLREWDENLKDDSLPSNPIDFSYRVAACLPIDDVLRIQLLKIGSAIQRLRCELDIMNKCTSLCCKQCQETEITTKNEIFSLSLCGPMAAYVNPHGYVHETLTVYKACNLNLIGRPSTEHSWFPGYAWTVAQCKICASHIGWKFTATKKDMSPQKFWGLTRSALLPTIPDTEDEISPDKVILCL
# Lookup of reported inhibition at 0.5 µM keyed by entry

COMPOUND	MEASURED_TARGET	inhibition at 0.5 µM
O=C1CCC(N2Cc3cc(CN4CCC(n5cc(NC(=O)c6coc(-c7ccnc(NCC8CC8)c7)n6)c(C(F)F)n5)CC4)ccc3C2=S)C(=O)N1 (centres unmarked) [GT-05286]	human Cereblon WT GST-tagged protein (Homo sapiens, UniProt Q96SW2)	30 to 40%

Q: Consider the compound shown here: CC(=O)c1c(C)c2cnc(Nc3ccc(N4CCN(Cc5ccc6c(c5)CN(C5CCC(=O)NC5=O)C6=S)CC4)cn3)nc2n(C2CCCC2)c1=O (centres unmarked) [GT-08766] What is its recorded inhibition at 0.5 µM?
A: 53 to 60%

Q: Same for O=C1CCC(N2Cc3ccc(CN4C[C@H]5C[C@@H]4CN5c4ccc(-c5cc(F)c6c(c5)C(=O)N(C(C(=O)Nc5nccs5)c5ncn7c5CCC7)C6)cc4)cc3C2=S)C(=O)N1 (some centres unmarked) [GT-08764]
A: 60 to 80%

Q: Same for CN(c1nccnc1CNc1nc(Nc2ccc(N3CCN(Cc4ccc5c(c4)CN(C4CCC(=O)NC4=O)C5=S)CC3)cc2)ncc1C(F)(F)F)S(C)(=O)=O (centres unmarked) [GT-08779]
A: 30 to 40%
